# tested target: Jak2 (UniProt O60674)
# Sequence (O60674 whole entry, looked up): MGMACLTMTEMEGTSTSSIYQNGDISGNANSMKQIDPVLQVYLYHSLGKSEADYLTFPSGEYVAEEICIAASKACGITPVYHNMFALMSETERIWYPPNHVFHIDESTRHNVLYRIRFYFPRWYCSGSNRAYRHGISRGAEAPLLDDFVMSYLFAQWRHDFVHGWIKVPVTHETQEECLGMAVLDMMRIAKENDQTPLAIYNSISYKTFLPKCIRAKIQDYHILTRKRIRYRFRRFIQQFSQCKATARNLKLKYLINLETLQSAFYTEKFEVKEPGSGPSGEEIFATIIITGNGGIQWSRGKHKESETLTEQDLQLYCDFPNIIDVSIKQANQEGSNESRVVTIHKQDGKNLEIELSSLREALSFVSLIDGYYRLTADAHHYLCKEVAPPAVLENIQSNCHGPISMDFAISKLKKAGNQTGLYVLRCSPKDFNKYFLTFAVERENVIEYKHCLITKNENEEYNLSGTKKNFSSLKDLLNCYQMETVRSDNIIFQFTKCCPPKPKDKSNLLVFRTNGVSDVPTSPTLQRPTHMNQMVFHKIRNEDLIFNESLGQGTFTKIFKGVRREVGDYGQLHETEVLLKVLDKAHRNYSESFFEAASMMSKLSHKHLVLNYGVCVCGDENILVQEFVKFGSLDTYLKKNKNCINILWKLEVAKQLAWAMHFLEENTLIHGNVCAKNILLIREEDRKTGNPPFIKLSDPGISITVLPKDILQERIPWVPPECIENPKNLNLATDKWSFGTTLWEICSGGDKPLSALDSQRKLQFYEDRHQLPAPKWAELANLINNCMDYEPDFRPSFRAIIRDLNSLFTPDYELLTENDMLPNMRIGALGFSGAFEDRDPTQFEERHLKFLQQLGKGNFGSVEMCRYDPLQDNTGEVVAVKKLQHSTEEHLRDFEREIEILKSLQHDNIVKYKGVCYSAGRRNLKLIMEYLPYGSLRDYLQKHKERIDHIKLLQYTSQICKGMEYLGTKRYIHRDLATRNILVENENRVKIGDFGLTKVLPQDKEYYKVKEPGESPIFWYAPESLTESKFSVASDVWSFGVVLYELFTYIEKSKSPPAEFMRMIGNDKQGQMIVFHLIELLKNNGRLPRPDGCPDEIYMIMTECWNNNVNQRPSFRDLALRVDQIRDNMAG
# protocol details: phosphorylation enrichment, bacterial display (enrichment ratio); higher = better substrate or ligand; peptides without Tyr show the background;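 further: 11-residue human phosphosite peptides and single-mutation variants displayed on the E. coli surface, counted by deep sequencing, each peptide's frequency after selection divided by its frequency in the unselected input library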;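 further: frequency after pTyr selection over input frequency; kinase dosed for 20-30% of maximal phosphorylation in three min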
Provide the recorded phosphorylation enrichment for the entries that follow.
API note: the answer field is a bare number with no unit suffix.

Input: Item LKYAIYFEARE [LAMA2_Y1258] has what recorded phosphorylation enrichment?
Output: 3.01

Input: Repeat for the following sequence: FQLPFYNMVPS [BMPR1A_Y458_YF]
Output: 0.666

Input: Repeat for the following sequence: VDEVLYEDSSA [MTHFS_Y197_T202A]
Output: 1.29

Input: Repeat for the following sequence: NFATLHLKIFH [PDE6B_Y219_Y219H_YF]
Output: 1.24

Input: Repeat for the following sequence: LREKVYASLEA [RXRA_Y397]
Output: 1.21

Input: Repeat for the following sequence: YSDPSYVKQME [CDC5L_Y464]
Output: 0.557

Input: Repeat for the following sequence: YASALYRQRRS [FGF11_Y162]
Output: 0.513

###

# tested target: EPHB2 (UniProt P29323)
# Sequence (P29323 whole entry, looked up): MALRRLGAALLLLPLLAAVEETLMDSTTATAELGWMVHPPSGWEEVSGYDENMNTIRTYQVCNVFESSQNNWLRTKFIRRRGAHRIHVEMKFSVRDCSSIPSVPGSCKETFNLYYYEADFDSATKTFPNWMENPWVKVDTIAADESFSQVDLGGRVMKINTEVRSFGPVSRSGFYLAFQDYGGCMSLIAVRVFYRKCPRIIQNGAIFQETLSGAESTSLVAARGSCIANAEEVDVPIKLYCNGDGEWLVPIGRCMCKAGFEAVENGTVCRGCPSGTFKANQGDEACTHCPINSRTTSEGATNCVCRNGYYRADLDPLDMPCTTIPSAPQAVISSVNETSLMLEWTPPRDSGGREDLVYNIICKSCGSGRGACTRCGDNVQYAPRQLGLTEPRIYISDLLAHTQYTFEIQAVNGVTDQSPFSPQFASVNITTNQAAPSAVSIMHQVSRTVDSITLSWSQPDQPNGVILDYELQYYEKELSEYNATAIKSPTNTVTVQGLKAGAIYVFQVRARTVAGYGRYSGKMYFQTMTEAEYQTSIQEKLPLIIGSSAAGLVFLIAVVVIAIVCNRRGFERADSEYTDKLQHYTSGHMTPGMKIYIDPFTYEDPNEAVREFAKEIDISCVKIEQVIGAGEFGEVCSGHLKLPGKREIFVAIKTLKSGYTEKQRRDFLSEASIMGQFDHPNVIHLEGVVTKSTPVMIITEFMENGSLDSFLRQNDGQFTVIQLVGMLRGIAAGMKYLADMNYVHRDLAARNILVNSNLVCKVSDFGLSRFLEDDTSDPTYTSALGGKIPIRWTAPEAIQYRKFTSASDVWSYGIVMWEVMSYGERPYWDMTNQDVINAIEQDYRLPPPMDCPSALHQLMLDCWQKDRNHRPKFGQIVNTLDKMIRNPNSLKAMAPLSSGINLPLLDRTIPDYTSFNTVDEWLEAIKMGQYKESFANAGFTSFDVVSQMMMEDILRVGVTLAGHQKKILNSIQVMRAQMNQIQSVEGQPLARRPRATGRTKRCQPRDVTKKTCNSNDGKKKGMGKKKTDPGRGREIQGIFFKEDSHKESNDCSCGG
# protocol details: phosphorylation enrichment, bacterial display (enrichment ratio); higher = better substrate or ligand; peptides without Tyr show the background
Provide the recorded phosphorylation enrichment for the entries that follow.
API note: the answer field is a bare number with no unit suffix.

Input: Item QRNEEYCLLDS [ITK_Y198_R193Q] has what recorded phosphorylation enrichment?
Output: 0.995

Input: Repeat for the following sequence: FQLPFYNMVPS [BMPR1A_Y458_YF]
Output: 0.773

Input: Repeat for the following sequence: VNKGGYFSVNL [C3orf33_Y164_S160N]
Output: 0.411

Input: Repeat for the following sequence: TTPGPHRSIYF [MPG_Y71_Y71H]
Output: 0.444

Input: Repeat for the following sequence: MCDKEYFSVHN [MET_Y1234_Y1230C_YF]
Output: 0.482

Input: Repeat for the following sequence: LITTLYIGFLD [KCNQ1_Y267_G272D]
Output: 1.16

Input: Repeat for the following sequence: RGDVIYKGFED [NFU1_Y194_G189R]
Output: 0.672

Input: Repeat for the following sequence: ETCLAYMEKRI [TEKT1_Y118_R119M]
Output: 0.617

Input: Repeat for the following sequence: ATAKGYEPDAS [OTC_Y223_P220A]
Output: 0.523

Input: Repeat for the following sequence: LTQRTYMLENA [GPAA1_Y49_S51L]
Output: 0.541

Input: Repeat for the following sequence: PNKAVYTKMMT [G6PD_Y401_E398K]
Output: 0.519

Input: Repeat for the following sequence: LLRLAYLADIF [ZBED5_Y476]
Output: 0.677

Input: Repeat for the following sequence: KNKNRCKNILP [PTPN11_Y279_Y279C]
Output: 0.503

Input: Repeat for the following sequence: HGEAVYSRDCV [XPC_Y676_R671H]
Output: 0.51

Input: Repeat for the following sequence: QNTGNYYDLYG [PTPN11_Y62_D61N]
Output: 28.7

Input: Repeat for the following sequence: FAKSVYWENTL [NUP107_Y296_YF]
Output: 0.531

Input: Repeat for the following sequence: KRIETYFSKNF [PLP1_Y50_L46R_YF]
Output: 0.417

Input: Repeat for the following sequence: VEDQYYCVDCY [FHL1_Y208]
Output: 0.754

Input: Repeat for the following sequence: AVSHRYDLGGL [QPRT_Y162_A158V]
Output: 0.524

Input: Repeat for the following sequence: GHGEEYPVAGA [NOTCH3_Y2221_A2223V]
Output: 0.424

Input: Repeat for the following sequence: QFLMKYVRSAS [ABCD1_Y337_W339R]
Output: 0.666

Input: Repeat for the following sequence: HLVSEYQQFQD [TUBB3_Y422_D417H_YF]
Output: 0.916

Input: Repeat for the following sequence: GEVLVYAEDPA [FLNA_Y319_V320A]
Output: 0.53

Input: Repeat for the following sequence: PRRRFYVVACD [RNASE3_Y134_G130R]
Output: 0.701

Input: Repeat for the following sequence: HPFNSYTFPRL [PAK5_Y316_S312P_YF]
Output: 0.64

Input: Repeat for the following sequence: SMAKFYASGIA [ACADSB_Y373_E376G_YF]
Output: 0.485

Input: Repeat for the following sequence: KEEEDYREENN [BMS1_Y651_K652R]
Output: 0.528

Input: Repeat for the following sequence: KKLEVYQSIAD [MYBPC3_Y548]
Output: 0.529

###

# System: Fer (mouse)
# protocol details: phosphorylation enrichment, bacterial display (enrichment ratio); higher = better substrate or ligand; peptides without Tyr show the background
Would you mind sorting the entries by phosphorylation enrichment according to these classes? low bin = under 0.4, mid bin = from 0.4 up to 0.6, high bin = 0.6 and over

Input: Returns: class label. Input: ANVIRYFPTQA [SLC25A4_Y81]
Output: mid bin

Input: Repeat for the following sequence: LMQAEYWHDPI [PPT1_Y185_V181M]
Output: high bin

Input: Repeat for the following sequence: IKETHYMVDRC
Output: mid bin

Input: Repeat for the following sequence: FQKNSYSEELR [LMNA_Y211_I210S]
Output: low bin

Input: Repeat for the following sequence: LITTPYIGFLG [KCNQ1_Y267_L266P]
Output: high bin

Input: Repeat for the following sequence: SVEVPYEPPEV [TP53_Y220_V217E]
Output: mid bin

Input: Repeat for the following sequence: ALLVFYAATIA [SLC20A2_Y187_P184L]
Output: mid bin

Input: Repeat for the following sequence: NQNIGYKLGHR [KCNN3_Y268]
Output: low bin

Input: Repeat for the following sequence: EREFKYGAHNF [OAT_Y50_YF]
Output: low bin

Input: Repeat for the following sequence: SSSGGYGGGYG [KRT19_Y61_A60G]
Output: low bin

Input: Repeat for the following sequence: GGMTEYELVVV [KRAS_Y4_K5E]
Output: high bin

Input: Repeat for the following sequence: FQRLRYIKQLG [SAMHD1_Y146]
Output: mid bin

Input: Repeat for the following sequence: AAVLNYKAWRD [GRIN2A_Y737_G740W]
Output: low bin

Input: Repeat for the following sequence: AEYGLYGAMVW [VSX2_Y222_R227W]
Output: high bin

Input: Repeat for the following sequence: VLDCHYPEDEV [C1QBP_Y188]
Output: high bin

Input: Repeat for the following sequence: RDSQIYAVDFE [MRPS34_Y34_L33I_YF]
Output: high bin

Input: Repeat for the following sequence: NYYDTCIKTCL [IQGAP2_Y1445_Y1445C]
Output: high bin

Input: Repeat for the following sequence: PPGRSYSPCDF [TNS1_Y793_Y796C_YF]
Output: high bin

Input: Repeat for the following sequence: AALVQYFMEHH [PTPN11_Y80_E76A_YF]
Output: mid bin

Input: Repeat for the following sequence: TYTVSYLPDMS [FLNC_Y1602]
Output: mid bin

Input: Repeat for the following sequence: ELAKFYKLHHI [AK7_Y391_N389K_YF]
Output: mid bin

Input: Repeat for the following sequence: VTPVMYTFDEF [COL10A1_Y623_G618V_YF]
Output: mid bin

Input: Repeat for the following sequence: ADSLRYIFPKL [EIF2B3_Y92_YF]
Output: low bin

Input: Repeat for the following sequence: LRNRVYEVPVE [SLC26A3_Y756]
Output: high bin

Input: Repeat for the following sequence: LLRFLYFFVCS [SLC34A2_Y109_G106R]
Output: mid bin

###

# tested target: FGFR3 (UniProt P22607)
# Sequence (P22607 whole entry, looked up): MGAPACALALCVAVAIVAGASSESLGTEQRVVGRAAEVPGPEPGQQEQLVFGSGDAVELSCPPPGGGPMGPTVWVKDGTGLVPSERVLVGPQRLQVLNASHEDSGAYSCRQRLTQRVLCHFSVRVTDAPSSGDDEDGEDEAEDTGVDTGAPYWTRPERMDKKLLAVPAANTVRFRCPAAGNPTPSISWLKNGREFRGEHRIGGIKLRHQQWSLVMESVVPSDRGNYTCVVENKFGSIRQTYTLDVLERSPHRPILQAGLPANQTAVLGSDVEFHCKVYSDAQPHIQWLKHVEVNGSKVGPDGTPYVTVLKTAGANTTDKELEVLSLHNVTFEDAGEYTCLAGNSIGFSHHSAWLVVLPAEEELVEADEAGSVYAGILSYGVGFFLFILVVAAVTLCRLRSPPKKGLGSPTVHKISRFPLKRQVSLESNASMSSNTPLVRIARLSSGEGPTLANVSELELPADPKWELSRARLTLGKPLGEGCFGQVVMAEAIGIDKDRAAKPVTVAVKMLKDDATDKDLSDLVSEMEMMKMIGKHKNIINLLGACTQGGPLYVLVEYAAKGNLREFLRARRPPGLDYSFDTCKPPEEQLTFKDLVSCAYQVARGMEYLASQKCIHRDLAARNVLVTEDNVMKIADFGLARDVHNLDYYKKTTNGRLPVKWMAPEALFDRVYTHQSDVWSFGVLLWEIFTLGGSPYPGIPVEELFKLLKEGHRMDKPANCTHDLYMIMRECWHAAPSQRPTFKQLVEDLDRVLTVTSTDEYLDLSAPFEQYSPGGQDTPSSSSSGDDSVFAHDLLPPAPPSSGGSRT
# protocol details: phosphorylation enrichment, bacterial display (enrichment ratio); higher = better substrate or ligand; peptides without Tyr show the background
Provide the recorded phosphorylation enrichment for the entries that follow.
API note: the answer field is a bare number with no unit suffix.

Input: Item RLDRSYSYSYS [PEAR1_Y890] has what recorded phosphorylation enrichment?
Output: 0.42

Input: Repeat for the following sequence: QLQQAYQEAFE [YWHAZ_Y149_S145L]
Output: 3.04

Input: Repeat for the following sequence: SSFPDYLAAVD [GLB1_Y154_D151Y_YF]
Output: 0.761

Input: Repeat for the following sequence: RIPFRYPKEFQ [IDS_Y234_H229R]
Output: 1.07

Input: Repeat for the following sequence: HQPGEYIFHAE [FLT3_Y416]
Output: 1.28

Input: Repeat for the following sequence: RGDVIYKGFED [NFU1_Y194_G189R]
Output: 0.699

Input: Repeat for the following sequence: LWPIWYRCHRP [MRGPRX1_Y130]
Output: 1.02

Input: Repeat for the following sequence: ATAKGYEPDAS [OTC_Y223_P220A]
Output: 0.549

Input: Repeat for the following sequence: KFADVYVGICL [B3GALNT1_Y269_E266A]
Output: 0.909

Input: Repeat for the following sequence: VEDQYYCVDCY [FHL1_Y208]
Output: 10.3

Input: Repeat for the following sequence: FGYPGYQSKHY [TIMP3_Y177]
Output: 0.546

Input: Repeat for the following sequence: KANEYYPVVII [ADAMTS18_Y765_L769I]
Output: 10.8

Input: Repeat for the following sequence: FLRKEYGGLNV [CBR3_Y81]
Output: 0.437

Input: Repeat for the following sequence: AMIADYMFWLG [SPATA16_Y290]
Output: 10.8
